Test: RPMI8226 myeloma cell viability, profiling panel, resazurin fluorescence, basal, 24 h, PK04 Diversity Set (AID 1180);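 also: RPMI8826 multiple myeloma cell line at 5000 cells per well; test concentration not given here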
Settings: higher = more signal

molecule | z-score
CC(C)=CCCC(C)=CCON=C1C[C@@H](O)[C@@H](O)[C@@H]2[C@@H]3C(=O)N([C@@H](C)c4ccccc4)C(=O)[C@@H]3CC[C@@H]12 | -0.249
COC(=O)CC=C[C@@H](C)[C@@H](C=NOC(C)CN1CCCc2nc(C)c(C)cc21)NS(=O)(=O)c1ccc(C)cc1 (some centres not stated) | -1.32
CCN1C(=O)[C@H]2[C@H]3[C@H](O)[C@H](O)CC(=NOCC=C(C)CCC=C(C)C)[C@@H]3CC[C@H]2C1=O | -0.517
CCOC(=O)[C@H](Cc1ccccc1)NC(=O)CCC1CC(OC(=O)NCCc2ccc(F)cc2)CC2(CCCC(COC(=O)NCCC(C)C)O2)O1 (some centres not stated) | 1.16
COc1ccc(O[C@H]2C=C[C@@H](c3ccccc3)O[C@@H]2CO)cc1 | -0.5
COc1ccc(OC[C@@H]2CC3[C@@H](c4ccc(Br)cc4)[C@H](C)CC[C@H]3C(=O)O2)cc1 (some centres not stated) | 1.04
CCOC(=O)[C@H](Cc1ccccc1)NC(=O)CCC1CC(OC(=O)NCc2ccc3c(c2)OCO3)CC2(CCCC(COC(=O)NCCOC)O2)O1 (some centres not stated) | -0.0023

###

Assay: fission yeast growth modulation, primary screen, strain 972, OD600, 24 h, no modulator (AID 1090);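 also: basal condition with compound alone and no growth modifier present; test concentration not given here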
Settings: S. pombe 972 growth, higher = more signal, called active from +8 up or from −8 down
property.measured: z-score

molecule | recorded.measurement
CCOC(=O)[C@H](Cc1ccccc1)NC(=O)CCC1CC(OC(=O)NCc2ccc3c(c2)OCO3)CC2(CCCC(COC(=O)NCCOc3ccccc3)O2)O1 (some centres not stated) | 0.486
O=C1C[C@@H](O)[C@@H](O)[C@@H]2[C@@H]3C(=O)N(C4CCCCC4)C(=O)[C@@H]3CC[C@@H]12 | -0.509
CC(C)CON=C1C[C@@H](O)[C@@H](O)[C@@H]2[C@@H]3C(=O)N(c4ccc(F)cc4F)C(=O)[C@@H]3CC[C@@H]12 | -0.786
COC(=O)CC=C[C@@H](C)[C@@H](C=NOC(C)CN1CCCCc2nc(C)c(C)cc21)NS(=O)(=O)c1ccc(C)cc1 (some centres not stated) | 0.22
CO[C@@H]1COC(=O)CC=C[C@H](C)[C@H](OC)COC(=O)[C@@H]2CCCN2C(=O)CC=C[C@H]1C | -0.719
COC(=O)C1=C(C)N(Cc2ccccc2)C2=C3C(=O)OCC[C@@H]3[C@@](O)(C(=O)OC)C(=O)N2[C@@H]1c1ccccc1 | -0.992
CC(C)=CCCC(C)=CCON=C1C[C@@H](O)[C@@H](O)[C@@H]2[C@@H]3C(=O)N(Cc4ccc5c(c4)OCO5)C(=O)[C@@H]3CC[C@@H]12 | 1.03

###

Molecular target: Albumin (Bos taurus) (UniProt P02769)
Sequence (P02769 whole entry, looked up): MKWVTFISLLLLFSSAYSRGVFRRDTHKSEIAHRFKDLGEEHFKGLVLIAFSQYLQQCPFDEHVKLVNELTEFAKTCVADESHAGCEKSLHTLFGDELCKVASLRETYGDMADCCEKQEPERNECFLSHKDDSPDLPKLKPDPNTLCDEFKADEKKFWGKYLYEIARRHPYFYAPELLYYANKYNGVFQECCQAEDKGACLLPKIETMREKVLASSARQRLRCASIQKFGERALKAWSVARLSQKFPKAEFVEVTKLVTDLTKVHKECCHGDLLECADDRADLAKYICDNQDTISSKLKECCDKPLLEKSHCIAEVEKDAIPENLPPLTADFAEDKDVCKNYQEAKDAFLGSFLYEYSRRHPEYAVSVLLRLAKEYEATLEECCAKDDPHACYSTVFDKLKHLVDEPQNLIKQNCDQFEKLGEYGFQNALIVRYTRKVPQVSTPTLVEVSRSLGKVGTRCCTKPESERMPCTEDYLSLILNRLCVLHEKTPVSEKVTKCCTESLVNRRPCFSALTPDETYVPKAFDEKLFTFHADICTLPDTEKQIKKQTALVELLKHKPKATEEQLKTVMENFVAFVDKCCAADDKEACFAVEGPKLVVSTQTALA
Assay: bovine serum albumin binders on microarray, profiling panel, artefact control for SMM control protein annotation, biochemical, small-molecule microarray, Alexa647 label, 635/667 nm fluorescence (AID 1118);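 also: score merges 667 nm emission intensity and signal-to-noise per printed compound spot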
Details: BSA-A647 binding, fluorescence 635 nm, higher = more signal
List of composite z-score values.

compound | composite z-score
CO[C@@H]1COC(=O)[C@@H]2CCCN2C(=O)[C@@H](C)COC(=O)CCC[C@H]1C | 0.379
O=C(NN=C1C[C@@H](O)[C@@H](O)[C@@H]2[C@@H]3C(=O)N(Cc4ccc5c(c4)OCO5)C(=O)[C@@H]3CC[C@@H]12)OCc1ccccc1 | 0.544
CC(CCN1CCc2nc(-c3ccccc3)c(-c3ccccc3)cc2C1)=NO[C@@H](C)c1cc(-c2c(C)cc(C)cc2C)no1 | 0.554
CC(CCN1CCc2nc(-c3ccccc3)c(-c3ccccc3)cc2C1)=NOC(C)CN1CCCc2nc(C)c(C)cc21 (centres undefined) | 0.682

###

Test: E. coli growth modulation, two-sided OD650, primary screen, E. coli filamentation project, strain DRC41, 24 h (AID 1093);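 also: MC1000 strain lacking acrAB efflux and sulA so SOS filamentation is blocked; test concentration not given here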
Conditions: OD650, 24 h, higher = more signal, called active from +8 up or from −8 down

compound | z-score
O=C(NCCC[N+]1=CC=NC1c1ccccc1)N1CCCc2nc(-c3ccc(Br)cc3)ccc21 (stereo not given) | 2.39
C[C@@H]1CC[C@@H](C(=O)O)N[C@H]1c1cccc(N2CCOCC2)c1 | 1.64
COc1ccc(COC(=O)NN=C2C[C@@H](O)[C@@H](O)[C@@H]3[C@@H]4C(=O)N(C[C@@H]5CCCO5)C(=O)[C@@H]4CC[C@@H]23)cc1 | 0.859
CN1CCc2nc(-c3ccccc3)c(-c3ccccc3)cc2C1 | 0.697
C[C@@H](c1ccccc1)N1C(=O)[C@H]2[C@H]3[C@H](O)[C@H](O)CC(=NOC[C@@H](O)COCc4ccco4)[C@H]3CC[C@H]2C1=O | -0.378
O=C1C2=CC[C@H]3C(=O)N(c4ccc(F)cc4F)C(=O)[C@H]3[C@H]2[C@H](O)[C@@H]2O[C@H]12 | 0.601
CCOC(=O)CCN1C(=O)[C@H]2[C@H]3[C@H](O)[C@H](O)CC(=O)[C@@H]3CC[C@H]2C1=O | -0.353
CCN1C(=O)[C@H]2[C@H]3[C@H](O)[C@H](O)CC(=NO[C@H](C)c4cn([C@H](CO)Cc5ccccc5)nn4)[C@@H]3CC[C@H]2C1=O | 0.607
COC(=O)[C@H](C)NC(=O)CCC1CC(OC(=O)NCc2cccc3ccccc23)CC2(CCCC(COC(=O)NCc3ccccc3)O2)O1 (stereo not given in full) | -0.351
CO[C@@H]1COC(=O)[C@H](COCc2ccccc2)NC(=O)CC=C[C@@H](C)[C@H](OC)COC(=O)[C@@H](C)NC(=O)CC=C[C@H]1C | 1.52
CCOC(=O)[C@H](CC(C)C)NC(=O)CCC1CC(OC(=O)NCc2ccc3c(c2)OCO3)CC2(CCCC(COC(=O)NCCC(C)C)O2)O1 (stereo not given in full) | 0.796
CCN1C(=O)[C@H]2[C@H]3[C@H](O)[C@H](O)CC(=NO[C@@H]4O[C@H](CO)[C@@H](O)[C@H](O)[C@H]4O)[C@H]3CC[C@H]2C1=O | 0.12
CO[C@@H]1COC(=O)[C@H](CCSC)NC(=O)CC=C[C@@H](C)COC(=O)[C@@H]2CCCN2C(=O)CC=C[C@H]1C | -0.135
O=C1C=C[C@@H](O)[C@@H]2[C@@H]3C(=O)N(Cc4ccccc4)C(=O)[C@@H]3CC[C@@H]12 | 0.575
CC(=O)OC[C@H]1O[C@H](C#CCCc2ccccc2)C=C[C@@H]1OC(C)=O | 0.396

###

Experiment: small-molecule microarray binders of probe aNog, primary screen, biochemical, biotinylated probe, 635/667 nm fluorescence (AID 1115);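 also: probe is biotinylated aNog protein used at 0.15 µg/mL for 1 h at 4 C; z-score combines 667 nm fluorescence of each spot with its signal to noise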
Conditions: higher = more signal
List of composite z-score values.

compound | composite z-score
CC(=O)OC[C@H]1O[C@H](CCON=C(C)C)C=C[C@@H]1OC(C)=O | -0.324
C=CC[C@@H]1C=C[C@H](Oc2ccc(C)cc2)[C@@H](COC(=O)NCc2cccc3ccccc23)O1 | -0.0496
COc1ccc(COC(=O)NN=C2C[C@@H](O)[C@@H](O)[C@@H]3[C@@H]4C(=O)N([C@@H](C)c5ccccc5)C(=O)[C@@H]4CC[C@H]23)cc1 | 0.314
CCOC(=O)[C@H](CC(C)C)NC(=O)CCC1CC(OC(=O)NCc2ccc3c(c2)OCO3)CC2(CCCC(COC(=O)NCCC(C)C)O2)O1 (stereo not given in full) | -0.295
CCOC(=O)CCN1C(=O)[C@H]2[C@H]3[C@H](O)[C@H](O)CC(=NOCC(C)C)[C@@H]3CC[C@H]2C1=O | -0.255
CC(C)C(=O)N[C@H]1CCCN1C(=O)C=Cc1ccccc1 | 0.254
C=C(C)C(=O)OC[C@H]1CN2[C@@H](CC[C@@H](C)[C@@H]2c2ccc(Br)cc2)C(=O)O1 | -0.353
COC(=O)[C@@H]1CC[C@H](C)[C@@H](c2ccc(Br)cc2)N1C[C@@H](O)CN=[N+]=[N-] | -0.0103
COC(=O)[C@@H]1CC[C@H](C)[C@@H](c2ccc(C)cc2)N1C(=O)c1ccc(C=NOC[C@@H](O)[C@H]2O[C@@H]3OC(C)(C)O[C@@H]3[C@H]2O)cc1 | -0.168
O=C1[C@H]2[C@H]3[C@H](O)[C@H](O)CC(=NO[C@@H]4O[C@H](CO)[C@@H](O)[C@H](O)[C@H]4O)[C@@H]3CC[C@H]2C(=O)N1c1cccc(Oc2ccccc2)c1 | -0.0675
O=C1[C@H]2CCn3c(=O)n(Cc4cc5c(cc4Cl)OCO5)c(=O)n3[C@H]2[C@H](O)[C@@H]2O[C@H]12 | -0.492
COC(=O)[C@H](C)NC(=O)CCC1CC(OC(=O)NCc2cccc3ccccc23)CC2(CCCC(COC(=O)NCCOc3ccccc3)O2)O1 (stereo not given in full) | -0.559
CO[C@@H]1COC(=O)[C@@H]2CCCN2C(=O)[C@@H](C)COC(=O)CCC[C@H]1C | -0.346
O=C1C=C[C@@H](O)[C@@H]2[C@@H]3C(=O)N(Cc4ccc5c(c4)OCO5)C(=O)[C@@H]3CC[C@@H]12 | -0.238
CCOC(=O)[C@H](Cc1ccccc1)NC(=O)CCC1CC(OC(=O)NCc2cccc3ccccc23)CC2(CCCC(COC(=O)NCc3ccc4c(c3)OCO4)O2)O1 (stereo not given in full) | -0.299

Each recorded value in this set is attributed to PubChem BioAssay.
